target: T1, mfNPR1-mFc:hBNP complex (monkey; human, UniProt P16860 103-134); assay: SPR, mAb captured, 25C
T1 construct: also called monkey NPR1 complexed to BNP
Each entry below lists one item and its recorded log10 Kd value.
Reminder: these figures are log10 of reported Kd, in nM before transformation.

binder	reading
mAb22035 (antibody, human IgG4, V domains shown) VH: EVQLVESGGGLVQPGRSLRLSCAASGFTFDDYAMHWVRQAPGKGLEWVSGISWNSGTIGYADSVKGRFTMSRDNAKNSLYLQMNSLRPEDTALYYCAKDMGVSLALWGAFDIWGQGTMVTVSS VL: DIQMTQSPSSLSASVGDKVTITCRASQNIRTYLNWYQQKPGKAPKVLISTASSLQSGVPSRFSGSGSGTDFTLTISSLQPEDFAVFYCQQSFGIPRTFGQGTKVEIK	-0.52

Please report the recorded log10 Kd for mAb25497 (antibody, human IgG4, V domains shown) VH: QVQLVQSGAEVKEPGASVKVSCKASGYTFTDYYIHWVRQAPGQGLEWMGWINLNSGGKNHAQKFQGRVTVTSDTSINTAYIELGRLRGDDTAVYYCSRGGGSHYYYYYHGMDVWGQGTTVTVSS VL: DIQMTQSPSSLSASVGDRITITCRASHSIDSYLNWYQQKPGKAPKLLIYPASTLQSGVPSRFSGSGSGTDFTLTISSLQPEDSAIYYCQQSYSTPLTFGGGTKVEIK . -0.49

Dear colleague, I am looking for the recorded log10 Kd of the following binder: mAb25508 (antibody, human IgG4, V domains shown) VH: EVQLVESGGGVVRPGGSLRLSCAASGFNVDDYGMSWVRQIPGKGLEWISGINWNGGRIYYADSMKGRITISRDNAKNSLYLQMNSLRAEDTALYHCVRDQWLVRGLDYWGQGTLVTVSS VL: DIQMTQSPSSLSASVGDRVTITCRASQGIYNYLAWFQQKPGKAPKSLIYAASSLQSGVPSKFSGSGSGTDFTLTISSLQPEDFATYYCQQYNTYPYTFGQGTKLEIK -0.54

// returns reported log10 Kd for input mAb22033 (antibody, human IgG4, V domains shown) VH: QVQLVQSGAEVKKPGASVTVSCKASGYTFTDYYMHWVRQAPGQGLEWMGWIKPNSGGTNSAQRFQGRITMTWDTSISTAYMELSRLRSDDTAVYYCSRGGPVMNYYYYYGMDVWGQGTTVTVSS VL: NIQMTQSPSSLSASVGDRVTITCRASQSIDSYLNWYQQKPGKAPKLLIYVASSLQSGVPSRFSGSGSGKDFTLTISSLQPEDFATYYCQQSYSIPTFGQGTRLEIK -0.11

Could you tell me which log10 Kd is on file for mAb25479 (antibody, human IgG4, V domains shown) VH: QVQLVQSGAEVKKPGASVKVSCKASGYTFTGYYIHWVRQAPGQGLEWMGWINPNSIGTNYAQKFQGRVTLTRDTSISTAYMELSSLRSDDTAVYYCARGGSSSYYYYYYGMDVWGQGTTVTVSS VL: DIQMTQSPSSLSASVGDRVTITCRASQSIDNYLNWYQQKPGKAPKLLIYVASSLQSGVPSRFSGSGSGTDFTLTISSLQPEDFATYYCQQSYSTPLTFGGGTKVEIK ? 0.47

Need log10 Kd, item mAb22809 (antibody, human IgG4, V domains shown) VH: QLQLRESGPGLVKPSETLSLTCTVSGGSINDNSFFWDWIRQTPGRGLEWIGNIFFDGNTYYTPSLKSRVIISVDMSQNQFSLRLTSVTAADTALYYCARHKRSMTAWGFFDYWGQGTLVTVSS VL: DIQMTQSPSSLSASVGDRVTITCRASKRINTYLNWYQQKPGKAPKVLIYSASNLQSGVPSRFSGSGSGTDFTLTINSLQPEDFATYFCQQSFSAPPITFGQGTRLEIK 0.59

Quick one: log10 Kd of mAb22805 (antibody, human IgG4, V domains shown) VH: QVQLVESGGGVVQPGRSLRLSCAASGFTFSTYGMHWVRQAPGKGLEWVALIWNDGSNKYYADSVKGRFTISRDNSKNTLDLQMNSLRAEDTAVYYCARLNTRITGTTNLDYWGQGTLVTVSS VL: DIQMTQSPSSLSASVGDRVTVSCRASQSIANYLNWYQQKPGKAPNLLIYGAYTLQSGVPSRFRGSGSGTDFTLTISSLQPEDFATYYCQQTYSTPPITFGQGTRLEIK ? 0.33
